# method: Permeability over MDR1-transfected MDCK cell monolayer
# Format: in vitro ADME, Canine
# setup_conditions: dog; MDR1-MDCK cell monolayer, 2 μM, 150-minute incubation, apical to basolateral
Record form. Attribute: Papp A→B at 150 min, 2 μM. Fill in for each entry.
Write your answer as a measured quantity: the number, then the unit.

Worked cases, answers included:
In [3]: df
Out[3]:
                                   compound              endpoint_name     meas_value
0  O=C1[C@@H]2[C@H]3CC[C@H](C3)[C@@H]2C(=O)N1CCCCN1CCN(c2ncccn2)CC1  Papp A→B at 150 min, 2 μM  30 ×10⁻⁶ cm/s
1  [2H]c1cnc(N2CCN(C([2H])([2H])CCCN3C(=O)[C@@H]4[C@@H]5CC[C@@H](C5)[C@@H]4C3=O)CC2)nc1  Papp A→B at 150 min, 2 μM  35 ×10⁻⁶ cm/s

# next compound below
**Query** Consider the compound shown here: CC(Cc1ccc(O)cc1)NCC(O)c1cc(O)cc(O)c1 (stereo not drawn) What is its recorded Papp A→B at 150 min, 2 μM?
**Result** 0.92 ×10⁻⁶ cm/s

---

# method: in vitro
# setup_conditions: human, microsomes, pH 7.4
Record form. Attribute: CLint scaled at 1 μM. Fill in for each entry.
Give bare numbers, in mL/min/kg.

Worked cases, answers included:
>>> df
                                   compound  unit_of_measure  meas_value
0  [2H]c1cnc(N2CCN(C([2H])([2H])CCCN3C(=O)[C@@H]4[C@H](C3=O)[C@H]3C[C@@H]4C([2H])C3[2H])CC2)nc1 (some centres unmarked)        mL/min/kg         231
1  [2H]C([2H])(CCCN1C(=O)[C@@]2([2H])[C@H]3CC[C@H](C3)[C@@]2([2H])C1=O)N1CCN(c2ncccn2)CC1        mL/min/kg         229
2  [2H]C([2H])(CCCN1C(=O)[C@@H]2[C@@H]3CC[C@@H](C3)[C@@H]2C1=O)N1CCN(c2ncccn2)CC1        mL/min/kg         235
3  [2H]c1cnc(N2CCN(C([2H])([2H])CCCN3C(=O)[C@@H]4[C@@H]5CC[C@@H](C5)[C@@H]4C3=O)CC2)nc1        mL/min/kg         219
4  [2H]C1C([2H])[C@@H]2C[C@H]1[C@@H]1C(=O)N(CCCC([2H])([2H])N3CCN(c4ncccn4)CC3)C(=O)[C@@H]12 (some centres unmarked)        mL/min/kg         240
5  [2H]C([2H])(CN1C(=O)[C@@H]2[C@@H]3CC[C@@H](C3)[C@@H]2C1=O)C([2H])([2H])C([2H])([2H])N1CCN(c2ncccn2)CC1        mL/min/kg         224
6  O=C1[C@@H]2[C@H]3CC[C@H](C3)[C@@H]2C(=O)N1CCCCN1CCN(c2ncccn2)CC1        mL/min/kg         282

# next compound below
**Query** Consider the compound shown here: O=C(O)Cc1ccccc1Nc1c(Cl)cccc1Cl [Diclofenac, reference compound] What is its recorded CLint scaled at 1 μM?
**Result** 90
